Record: Kd reported on A2AR (Homo sapiens).
Sequence (P29274 whole entry): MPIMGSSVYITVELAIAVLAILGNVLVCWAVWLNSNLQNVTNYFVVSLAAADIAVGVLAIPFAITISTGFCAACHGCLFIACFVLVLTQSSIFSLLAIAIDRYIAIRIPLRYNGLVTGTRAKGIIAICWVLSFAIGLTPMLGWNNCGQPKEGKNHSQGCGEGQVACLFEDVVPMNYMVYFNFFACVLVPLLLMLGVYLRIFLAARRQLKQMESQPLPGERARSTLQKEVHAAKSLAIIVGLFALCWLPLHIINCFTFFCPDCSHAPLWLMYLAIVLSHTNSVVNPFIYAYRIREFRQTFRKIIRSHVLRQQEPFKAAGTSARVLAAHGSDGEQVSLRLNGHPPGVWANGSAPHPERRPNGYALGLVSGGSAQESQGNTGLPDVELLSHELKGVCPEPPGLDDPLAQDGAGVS
RECORDED_METRIC: Kd (nM)

[a] C#CCn1c(=O)c2c(nc(/C=C/c3cccc(OC)c3)n2C)n(CCCO)c1=O [MSX-2]
[b] COCCOc1ccc(N2CCN(CCn3ncc4c3nc(N)n3nc(-c5ccco5)nc43)CC2)cc1 [SCH-420814]
Prompt: Identify the entry with the larger Kd. Options: a and b API: response body contains the label of the selected item.
Response: a

====

MEASUREMENT_TARGET: A2AR in A2AR-D2R heteromers (Homo sapiens, UniProt P29274)
Sequence (P14416 whole entry partner, one chain of several): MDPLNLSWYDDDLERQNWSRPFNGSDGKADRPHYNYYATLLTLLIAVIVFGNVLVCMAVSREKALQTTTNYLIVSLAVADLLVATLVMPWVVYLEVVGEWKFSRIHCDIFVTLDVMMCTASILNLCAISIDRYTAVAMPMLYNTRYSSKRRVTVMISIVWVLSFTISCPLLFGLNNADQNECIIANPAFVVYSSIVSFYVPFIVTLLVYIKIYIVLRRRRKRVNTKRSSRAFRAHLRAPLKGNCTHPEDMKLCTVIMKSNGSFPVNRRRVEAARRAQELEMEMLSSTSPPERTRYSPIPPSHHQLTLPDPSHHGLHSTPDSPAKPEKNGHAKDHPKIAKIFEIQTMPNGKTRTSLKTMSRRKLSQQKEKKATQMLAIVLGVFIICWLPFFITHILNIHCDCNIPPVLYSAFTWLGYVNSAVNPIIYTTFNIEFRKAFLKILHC
RECORDED_METRIC: Kd (nM)

[P] C#CCn1c(=O)c2c(nc(/C=C/c3cccc(OC)c3)n2C)n(CCCO)c1=O
[Q] COCCOc1ccc(N2CCN(CCn3ncc4c3nc(N)n3nc(-c5ccco5)nc43)CC2)cc1
Prompt: Could you point out whether the larger Kd belongs to P or to Q ? Give the chosen item's label as your response.
Response: P

====

MEASUREMENT_TARGET: A2AR in A1R-A2AR heteromers (Homo sapiens)
Sequence (P30542 whole entry partner, one chain of several): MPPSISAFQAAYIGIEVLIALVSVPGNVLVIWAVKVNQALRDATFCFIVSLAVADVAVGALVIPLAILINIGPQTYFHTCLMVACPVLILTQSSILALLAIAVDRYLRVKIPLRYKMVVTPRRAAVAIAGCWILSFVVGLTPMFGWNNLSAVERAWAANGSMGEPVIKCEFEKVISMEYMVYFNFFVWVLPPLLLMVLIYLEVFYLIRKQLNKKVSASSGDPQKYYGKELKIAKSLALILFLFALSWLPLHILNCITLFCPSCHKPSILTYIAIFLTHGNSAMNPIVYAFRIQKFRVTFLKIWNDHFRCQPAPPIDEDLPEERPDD
ASSAY_PROCEDURE: biochemical
pKd: −log10 of the molar value.
RECORDED_METRIC: pKd

[P] C#CCn1c(=O)c2c(nc(/C=C/c3cccc(OC)c3)n2C)n(CCCO)c1=O
[Q] COCCOc1ccc(N2CCN(CCn3ncc4c3nc(N)n3nc(-c5ccco5)nc43)CC2)cc1
Prompt: Consider P and Q . Which of these has its pKd at a higher number? Record your answer as the label of the chosen record.
Response: Q
